Target desc: Neuronal acetylcholine receptor; alpha3/beta4 (Rattus norvegicus, UniProt P04757+P12392)
Sequence (P12392 whole entry, one chain of several): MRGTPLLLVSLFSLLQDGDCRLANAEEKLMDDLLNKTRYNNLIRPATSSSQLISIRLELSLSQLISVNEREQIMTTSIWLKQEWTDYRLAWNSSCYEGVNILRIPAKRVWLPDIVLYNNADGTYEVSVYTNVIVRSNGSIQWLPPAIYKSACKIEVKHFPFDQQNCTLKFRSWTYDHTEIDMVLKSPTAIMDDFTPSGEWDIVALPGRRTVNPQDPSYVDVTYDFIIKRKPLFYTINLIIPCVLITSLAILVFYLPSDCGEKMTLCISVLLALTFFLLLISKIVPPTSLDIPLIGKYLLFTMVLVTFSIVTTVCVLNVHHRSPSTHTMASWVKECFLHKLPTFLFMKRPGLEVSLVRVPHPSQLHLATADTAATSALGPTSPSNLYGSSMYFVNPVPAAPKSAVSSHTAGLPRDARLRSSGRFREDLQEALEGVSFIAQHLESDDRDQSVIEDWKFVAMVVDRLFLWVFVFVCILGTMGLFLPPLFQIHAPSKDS
Protocol details: Binding affinity towards Nicotinic acetylcholine receptor alpha3-beta4
Assay type: protein-complex assay
Assay metric: Ki (nM)
Reply numerically in nM, unit not repeated.

[ask] Requested field: Ki. Item: Clc1ccc(C2CC3CCC2N3CCN2C3CCC2C(c2ccc(Cl)nc2)C3)cn1 (stereo unspecified)
[reply] 47.8

----------
Target desc: Neuronal acetylcholine receptor; alpha3/beta2 (Rattus norvegicus, UniProt P04757+P12390)
Sequence (P04757 whole entry): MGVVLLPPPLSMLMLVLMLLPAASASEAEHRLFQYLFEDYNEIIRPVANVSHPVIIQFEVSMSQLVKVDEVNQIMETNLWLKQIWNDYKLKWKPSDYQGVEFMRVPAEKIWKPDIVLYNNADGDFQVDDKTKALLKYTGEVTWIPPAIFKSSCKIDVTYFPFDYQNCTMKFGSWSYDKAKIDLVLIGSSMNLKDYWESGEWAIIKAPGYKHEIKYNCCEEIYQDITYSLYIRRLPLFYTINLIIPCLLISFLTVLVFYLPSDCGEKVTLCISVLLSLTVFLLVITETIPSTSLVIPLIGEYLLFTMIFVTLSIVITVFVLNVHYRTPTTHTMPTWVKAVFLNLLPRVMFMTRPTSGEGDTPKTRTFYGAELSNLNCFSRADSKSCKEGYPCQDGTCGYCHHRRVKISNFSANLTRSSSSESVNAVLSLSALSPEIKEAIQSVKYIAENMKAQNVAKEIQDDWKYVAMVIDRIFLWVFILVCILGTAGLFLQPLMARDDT
Sequence (P12390 whole entry): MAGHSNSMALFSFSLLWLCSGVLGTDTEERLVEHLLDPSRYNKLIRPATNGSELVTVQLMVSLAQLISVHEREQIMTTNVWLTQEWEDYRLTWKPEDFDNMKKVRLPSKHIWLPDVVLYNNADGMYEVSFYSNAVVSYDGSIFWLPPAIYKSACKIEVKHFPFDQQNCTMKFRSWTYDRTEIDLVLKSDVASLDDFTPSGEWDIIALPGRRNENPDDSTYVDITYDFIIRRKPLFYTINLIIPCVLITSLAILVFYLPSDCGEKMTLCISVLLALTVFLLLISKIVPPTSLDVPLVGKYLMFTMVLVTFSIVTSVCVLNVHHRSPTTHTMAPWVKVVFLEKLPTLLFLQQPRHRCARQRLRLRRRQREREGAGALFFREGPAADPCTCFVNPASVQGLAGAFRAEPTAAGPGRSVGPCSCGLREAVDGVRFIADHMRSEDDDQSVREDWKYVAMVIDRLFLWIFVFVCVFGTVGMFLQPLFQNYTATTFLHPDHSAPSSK
Protocol details: Binding affinity towards Nicotinic acetylcholine receptor alpha3-beta2 using [3H]epibatidine
Task for the reader: assign each of the following molecules its reported Ki.

[ask] Give Neuronal acetylcholine receptor; alpha3/beta2 (Rattus norvegicus, UniProt P04757+P12390) Ki for Clc1ccc(C2CC3CCC2N3CCCN2C3CCC2C(c2ccc(Cl)nc2)C3)cn1 (centres undefined)
[reply] 8.99 nM

[ask] Give Neuronal acetylcholine receptor; alpha3/beta2 (Rattus norvegicus, UniProt P04757+P12390) Ki for Clc1ccc(C2CC3CCC2N3CCN2C3CCC2C(c2ccc(Cl)nc2)C3)cn1 (centres undefined)
[reply] 5.44 nM

[ask] Give Neuronal acetylcholine receptor; alpha3/beta2 (Rattus norvegicus, UniProt P04757+P12390) Ki for Clc1ccc(C2CC3CCC2N3CCCCCCCCCCN2C3CCC2C(c2ccc(Cl)nc2)C3)cn1 (centres undefined)
[reply] 12.6 nM

[ask] Give Neuronal acetylcholine receptor; alpha3/beta2 (Rattus norvegicus, UniProt P04757+P12390) Ki for Clc1ccc(C2CC3CCC2N3CCCCCCN2C3CCC2C(c2ccc(Cl)nc2)C3)cn1 (centres undefined)
[reply] 6.19 nM

FYI, the data here is from ChEMBL document CHEMBL1147511.
